The reported numbers originate from paper PMC9950535.

- subject_of_test: T1, SsoRadA (Saccharolobus solfataricus, UniProt Q55075 1-324)
- T1 sequence: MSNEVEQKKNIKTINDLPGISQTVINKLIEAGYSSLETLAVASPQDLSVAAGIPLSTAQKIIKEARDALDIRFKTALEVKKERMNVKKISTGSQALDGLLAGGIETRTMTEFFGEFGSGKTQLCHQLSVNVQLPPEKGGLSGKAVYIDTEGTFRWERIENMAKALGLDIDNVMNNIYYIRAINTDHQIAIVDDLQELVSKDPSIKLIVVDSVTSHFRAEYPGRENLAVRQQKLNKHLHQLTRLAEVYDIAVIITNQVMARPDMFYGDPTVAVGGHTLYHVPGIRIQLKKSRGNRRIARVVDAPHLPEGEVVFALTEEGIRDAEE
- assay_method_text: filter binding; 10 mM Mg2+, 3 uM ATP; Filter binding: 40 mM HEPES pH 7.0, 50 mM KCl, 10 mM CaCl2, MgCl2 or MnCl2, 20 pmol SsoRadA, 3 uM ATP where included, ssDNA varied; temperature not stated
- condition: protein: recombinant; single strand
pKd: −log10 of the molar value.
quantity: pKd

                                     binder  quantity  recorded_result
0  63-mer oligonucleotide (ssDNA) DNA: ACAGCACCAATGAAATCTATTAAGCTCCTCATCGTCCGCAAAAATATCGTCACCTCAAAAGGA       pKd             7.67
